Reported viability fraction (lower = toxic) values for a set of molecules
assay: MDA-MB-231 breast cancer cell growth inhibition, dose response, CellTiter-Glo luminescence, dry powder, set 2 (AID 588840); settings: MDA-MB-231 viability, CellTiter-Glo luminescence, 72 h; at 32 µM (top of the series)
Expressed in %, but write only the number.

O=C(NC1CCCC1)c1ccc(COc2ccccc2)o1 : 101
Cc1csc(NC(=O)c2ccc(COc3ccccc3)o2)n1 : 72.4
CC(C)c1ccc(/C=C/C(=O)NC2=NCCS2)cc1 : 34.6

Consider Cc1ccc(/C=C/C(=O)NC2=NCCS2)cc1 . Its measured viability fraction (lower = toxic) is 114

Consider COc1ccc(/C=C/C(=O)NC2=NCCS2)c(OC)c1 . Its measured viability fraction (lower = toxic) is 118

Consider O=C(/C=C/c1ccc(-c2ccccc2)cc1)NC1=NCCS1 . Its measured viability fraction (lower = toxic) is 76.4
